TARGET ENTITY: mouse P23H opsin (Mus musculus, UniProt P15409, P23H)
Construct: expressed in transfected cells
Sequence (P15409 whole entry P23H): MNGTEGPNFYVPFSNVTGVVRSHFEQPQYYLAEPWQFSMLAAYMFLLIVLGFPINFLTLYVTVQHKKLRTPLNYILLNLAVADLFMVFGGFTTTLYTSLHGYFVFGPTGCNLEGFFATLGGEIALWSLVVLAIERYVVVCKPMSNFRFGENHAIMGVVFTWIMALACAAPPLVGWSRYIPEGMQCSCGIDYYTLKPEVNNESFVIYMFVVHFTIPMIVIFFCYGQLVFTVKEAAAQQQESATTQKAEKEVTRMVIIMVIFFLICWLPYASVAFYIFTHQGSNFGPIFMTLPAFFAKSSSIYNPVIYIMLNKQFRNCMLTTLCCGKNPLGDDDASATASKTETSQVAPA
EXPERIMENT NOTES: Immunostain and image-based high-content analysis of P23H mutant opsin in NIH3T3 cells
Format: cell-based
COND: ratio of P23H rod opsin fluorescence on plasma membrane to whole cell; read-out: Immunostaining HCS MEM-Total ratio EC50
Excerpt: Three NIH3T3 stable cell lines, NIH3T3-(WT-opsin/GFP), NIH3T3-(P23H-opsin/GFP), and NIH3T3-(GFP) were previously generated which stably express mouse WT opsin and GFP; P23H opsin and GFP; and only GFP, respectively. GFP is expressed separately from opsin in these cell lines. NIH3T3 cells were from ATCC. […] Expression of GFP was confirmed by green fluorescence imaging, and expression of P23H and WT opsin were confirmed by immunoblots. […]
pEC50: −log10 of the molar value.
MEASURED PARAMETER: pEC50

{"columns": ["CHEMICAL STRUCTURE", "TARGET ENTITY", "pEC50"],
 "data": [
  ["O=C(NCCn1ncc2c(NCc3ccco3)ncnc21)c1cc(-c2ccccc2)on1", "mouse P23H opsin (Mus musculus, UniProt P15409, P23H)", 5.38]
]}

A = O=C(NCCCOc1cccc2cccnc12)c1cc(-c2ccccc2)on1
B = O=C(C1CC1)N(CCn1cccn1)c1nc2c(Cl)cccc2s1
C = COCCNC(=O)c1sc2c(cnc3ccc(OC)cc32)c1-c1ccccc1
**Q:** Place the items in sequence of falling pEC50. Please respond by ranking the labels in the order requested.
**A:** B, C, A

Data origin: patent US12251373B2
